Data credit: patent US20080187490A1

Target: preformed immune complex of peroxidase-rabbit anti-peroxidase IgG (PAP complex) (rabbit; horseradish) (UniProt P00433)
Sequence (P00433 31-338, one chain of several): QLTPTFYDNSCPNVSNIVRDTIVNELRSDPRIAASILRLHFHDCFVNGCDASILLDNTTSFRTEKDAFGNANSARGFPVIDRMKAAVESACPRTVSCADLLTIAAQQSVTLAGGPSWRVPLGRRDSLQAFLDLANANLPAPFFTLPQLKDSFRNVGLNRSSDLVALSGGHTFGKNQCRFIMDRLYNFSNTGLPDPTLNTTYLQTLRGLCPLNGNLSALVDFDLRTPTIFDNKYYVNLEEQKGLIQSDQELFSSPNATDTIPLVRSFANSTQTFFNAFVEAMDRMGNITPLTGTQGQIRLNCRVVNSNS
Assay: competition reverse ELISA: PAP pre-incubated with peptide, residual PAP binding to FcγIII-coated plate (competitor: immobilized FcγIII)
No end group written: not given here.
measured_attribute: OD 405 nm (OD 405 nm)

Examples from the recorded data:
{"binder": "APPCARHLGELVWCT (not fully specified; cysteine pairing not given here) [Peptide … (SEQ ID NO:14)]", "readout_units": "OD 405 nm", "OD 405 nm": 0.709}
{"binder": "APPDCAWHLGELVWCT [Peptide … (SEQ ID NO:16)]", "readout_units": "OD 405 nm", "OD 405 nm": 0.67}
{"binder": "DCAFHLGELVWCT [Peptide … (SEQ ID NO:3)]", "readout_units": "OD 405 nm", "OD 405 nm": 0.81}

a. APPCAFHLGELVWCT (not fully specified; cysteine pairing not given here) [Peptide … (SEQ ID NO:15)]
b. APPCAWHLGELVWCT (not fully specified; cysteine pairing not given here) [Peptide … (SEQ ID NO:13)]
Given the two records a and b , choose the one whose OD 405 nm value is lower. Which one? Tell me its label.
b
